Recorded EC50 values for a group of compounds are listed next.
# study.target: NLRP3 inflammasome (Homo sapiens, UniProt Q96P20)
# Construct: host or cells: THP-1 human monocytic cells, PMA-differentiated, gramicidin-stimulated
# Sequence (Q96P20 whole entry): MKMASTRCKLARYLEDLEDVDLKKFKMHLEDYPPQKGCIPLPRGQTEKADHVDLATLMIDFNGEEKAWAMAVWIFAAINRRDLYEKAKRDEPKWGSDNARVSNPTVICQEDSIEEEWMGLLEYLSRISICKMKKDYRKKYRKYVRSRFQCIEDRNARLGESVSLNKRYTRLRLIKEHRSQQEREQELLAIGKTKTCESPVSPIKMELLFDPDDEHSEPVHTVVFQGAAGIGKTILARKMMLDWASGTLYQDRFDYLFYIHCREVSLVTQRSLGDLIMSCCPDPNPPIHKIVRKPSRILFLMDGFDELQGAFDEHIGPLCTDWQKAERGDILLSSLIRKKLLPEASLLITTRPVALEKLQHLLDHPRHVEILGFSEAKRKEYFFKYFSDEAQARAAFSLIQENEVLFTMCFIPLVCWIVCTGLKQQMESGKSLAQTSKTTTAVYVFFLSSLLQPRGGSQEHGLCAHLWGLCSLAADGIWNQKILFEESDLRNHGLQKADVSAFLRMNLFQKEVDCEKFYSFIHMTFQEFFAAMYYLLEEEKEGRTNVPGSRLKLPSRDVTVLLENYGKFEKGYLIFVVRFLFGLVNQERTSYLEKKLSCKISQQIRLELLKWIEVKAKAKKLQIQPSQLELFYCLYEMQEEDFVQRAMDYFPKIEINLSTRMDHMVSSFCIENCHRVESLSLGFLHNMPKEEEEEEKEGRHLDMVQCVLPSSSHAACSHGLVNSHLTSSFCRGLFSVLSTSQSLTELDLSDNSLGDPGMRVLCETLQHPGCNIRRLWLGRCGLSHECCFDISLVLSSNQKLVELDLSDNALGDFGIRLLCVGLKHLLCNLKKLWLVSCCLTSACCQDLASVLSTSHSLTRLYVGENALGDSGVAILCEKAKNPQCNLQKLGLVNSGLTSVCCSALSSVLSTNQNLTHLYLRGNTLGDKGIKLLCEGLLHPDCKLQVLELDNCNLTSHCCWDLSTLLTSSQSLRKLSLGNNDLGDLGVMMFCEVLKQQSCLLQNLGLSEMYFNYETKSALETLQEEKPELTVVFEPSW
# assay.text: ASC-SPECK formation in THP-1 cells after gramicidin stimulation (NLRP3 inflammasome activation)
# Type: cell-based
# assay.context: PMA-treated human monocytic THP-1 cells, compound added 1 h before 12.5 ug/ml gramicidin, 3-hour treatment, ASC SPECK imaging; read-out: EC50 (nM), inhibition of NLRP3 inflammasome activation
State the answer as a number, implicitly in nM.

Worked set:
>>> df
                                   compound  units_label  assay_result
0  CCC(=O)N1C[C@H](F)C[C@H]1CN1CCCc2cc(-c3c(C)cc(C(F)(F)F)cc3O)nnc21 [Example 18]           nM           204
1  Cc1cc(C(F)(F)F)cc(O)c1-c1cc2c(nn1)N([C@H]1C[C@@](C)(O)C1)C[C@H](N)C2 [Example 8]           nM           285

// next entry
# input Give the measured EC50 of CCN1CCC[C@@H](N2CCCc3c2nnc(-c2ccc4occc4c2)c3C)C1 [Example 12] .
# output 253

----------
# study.target: NLRP3 inflammasome (Homo sapiens)
# Construct: host or cells: THP-1 human monocytic cells, PMA-differentiated, gramicidin-stimulated
# assay.text: ASC-SPECK formation in THP-1 cells after gramicidin stimulation (NLRP3 inflammasome activation)
# Type: cell-based
# assay.context: PMA-treated human monocytic THP-1 cells, compound added 1 h before 12.5 ug/ml gramicidin, 3-hour treatment, ASC SPECK imaging; read-out: EC50 (nM), inhibition of NLRP3 inflammasome activation
Threshold 200 nM: EC50 strictly smaller gives criterion met, otherwise criterion not met.

>>> print(df.to_string())
                                   compound                       study_target  assigned_category
0  Cc1cc(C(F)(F)F)cc(O)c1-c1cc2c(nn1)N(C13CCCC(O)(C1)C3)CCC2  NLRP3 inflammasome (Homo sapiens)      criterion met
1  Cc1cc(C(F)(F)F)cc(O)c1-c1cc2c(nn1)N([C@@H]1CCCC[C@H]1O)CCC2  NLRP3 inflammasome (Homo sapiens)      criterion met
2  Cc1cc(C(F)(F)F)cc(O)c1-c1cc2c(nn1)N(C[C@@H]1C[C@@H](F)CN1C(=O)C1CCC1)CCC2  NLRP3 inflammasome (Homo sapiens)  criterion not met

# input API: query returns whether the compound falls strictly under 200 nM in EC50. Query: "Cc1cc(C(F)(F)F)cc(O)c1-c1cc2c(nn1)N(C[C@@H]1C[C@@H](F)CN1S(C)(=O)=O)CCC2"
# output criterion not met

# input API: query returns whether the compound falls strictly under 200 nM in EC50. Query: "Cc1cc(C(F)(F)F)cc(O)c1-c1cc2c(nn1)N([C@H]1CN(C)CC[C@H]1O)CCC2"
# output criterion met

# input API: query returns whether the compound falls strictly under 200 nM in EC50. Query: Cc1cc(C(F)(F)F)cc(O)c1-c1cc2c(nn1)N(C1CC(C)(C)C1O)CCC2 (single isomer, unassigned) [Example 6]
# output criterion met

# input API: query returns whether the compound falls strictly under 200 nM in EC50. Query: "Cc1cc(C(F)(F)F)cc(O)c1-c1cc2c(nn1)N(C[C@@H]1C[C@H](F)CN1C)CCC2"
# output criterion not met

----------
Recorded EC50 values for a group of compounds are listed next.
# study.target: NLRP3 inflammasome (Homo sapiens)
# Construct: host or cells: THP-1 human monocytic cells, PMA-differentiated, gramicidin-stimulated
# assay.text: ASC-SPECK formation in THP-1 cells after gramicidin stimulation (NLRP3 inflammasome activation)
# Assay type: cell-based
# assay.context: PMA-treated human monocytic THP-1 cells, compound added 1 h before 12.5 ug/ml gramicidin, 3-hour treatment, ASC SPECK imaging; read-out: EC50 (nM), inhibition of NLRP3 inflammasome activation
State the answer as a number, implicitly in nM.

>>> print(df.to_string())
                                   compound  assay_readout  units_label  assay_result
0  Cc1cc(C(F)(F)F)cc(O)c1-c1cc2c(nn1)N(C[C@@H]1C[C@H](F)CN1)CCC2           EC50           nM           240
1  Cc1cc(C(F)(F)F)cc(O)c1-c1cc2c(nn1)N(C1CC(C)(C)C1O)CCC2 (single isomer, unassigned) [Example 5]           EC50           nM          1430
2  CC(=O)N1C[C@@H](F)C[C@H]1CN1CCCc2cc(-c3c(C)cc(C(F)(F)F)cc3O)nnc21           EC50           nM           597
3  CCN1CCC[C@@H](N2CCCc3c2nnc(-c2ccc(C(F)(F)F)nc2OC(F)F)c3C)C1           EC50           nM          1070
4  CCN1CCC[C@@H](N2CCCc3cc(-c4c(C)cc(C(F)(F)F)cc4O)nnc32)C1           EC50           nM             5

# input Give the measured EC50 of "Cc1cc(C(F)(F)F)cc(O)c1-c1cc2c(nn1)N(C[C@@H]1C[C@@H](F)CN1C(=O)C1CC1)CCC2" .
# output 431

----------
# study.target: NLRP3 inflammasome (Homo sapiens)
# Construct: host or cells: THP-1 human monocytic cells, PMA-differentiated, gramicidin-stimulated
# assay.text: ASC-SPECK formation in THP-1 cells after gramicidin stimulation (NLRP3 inflammasome activation)
# Type: cell-based
# assay.context: PMA-treated human monocytic THP-1 cells, compound added 1 h before 12.5 ug/ml gramicidin, 3-hour treatment, ASC SPECK imaging; read-out: EC50 (nM), inhibition of NLRP3 inflammasome activation
assay.readout: EC50 (nM)
State the answer as a number, implicitly in nM.

Worked set:
In [3]: df
Out[3]:
                              sample_smiles  assay_readout  assay_result
0  CCN1CCC[C@@H](N2CCCc3c2nnc(-c2ccc(C(F)(F)F)cc2O)c3C)C1           EC50            48
1  CCN1C[C@@H](F)C[C@H]1CN1CCCc2cc(-c3c(C)cc(C(F)(F)F)cc3O)nnc21           EC50           692
2  CCN1CCC[C@@H](N2CCCc3c2nnc(-c2ccc(C(F)(F)F)cc2OC(F)F)c3C)C1           EC50           380
3  Cc1cc(C(F)(F)F)cc(O)c1-c1cc2c(nn1)N(C[C@@H]1C[C@H](F)CN1S(C)(=O)=O)CCC2           EC50           784
4  Cc1cc(C(F)(F)F)cc(O)c1-c1cc2c(nn1)N([C@H]1C[C@@](C)(O)C1)CCC2           EC50            42

# input Provide the documented EC50 with NLRP3 inflammasome (Homo sapiens) as the system for "CC(=O)N1C[C@H](F)C[C@H]1CN1CCCc2cc(-c3c(C)cc(C(F)(F)F)cc3O)nnc21"
# output 317
